Exercise: state measured Kb for each of the compounds provided.
ASSAYED_SYSTEM: 5-hydroxytryptamine receptor 3A (Cavia porcellus, UniProt O70212)
Sequence (O70212 whole entry): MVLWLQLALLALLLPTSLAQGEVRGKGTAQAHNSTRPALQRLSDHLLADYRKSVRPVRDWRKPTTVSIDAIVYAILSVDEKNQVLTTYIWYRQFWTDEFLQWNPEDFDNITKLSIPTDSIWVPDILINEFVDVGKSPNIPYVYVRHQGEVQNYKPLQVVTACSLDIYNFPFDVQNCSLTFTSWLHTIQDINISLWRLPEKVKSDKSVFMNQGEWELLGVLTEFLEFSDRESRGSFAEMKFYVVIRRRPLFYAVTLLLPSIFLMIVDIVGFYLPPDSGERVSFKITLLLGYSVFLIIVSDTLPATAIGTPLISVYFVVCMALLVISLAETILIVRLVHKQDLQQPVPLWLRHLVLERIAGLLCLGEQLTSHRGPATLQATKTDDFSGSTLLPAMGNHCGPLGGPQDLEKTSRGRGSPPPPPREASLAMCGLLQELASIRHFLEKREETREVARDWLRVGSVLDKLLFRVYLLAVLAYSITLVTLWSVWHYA
ASSAY_PROTOCOL: Antagonist effect against 2-methyl-5-HT activity at 5-HT3 receptor in longitudinal muscle myenteric plexus from guinea pig ileum
Assay type: functional, tissue-based
MEASUREMENT_CONTEXT: read-out: pA2 (converted)

Which Kb reading was recorded for the compound `COc1nc2ccccc2nc1C(=O)Nc1ccc(O)c(CN2CCCCC2)c1` ?
316 µM

Would you mind doing `CCOc1nc2ccccc2nc1C(=O)Nc1ccc(O)c(CN2CCOCC2)c1` as well?
> 1000 µM

Further, for `COc1nc2ccccc2nc1C(=O)Nc1ccc(O)c(CN2CCOCC2)c1` ?
1000 µM

Thanks! And `COc1nc2ccccc2nc1C(=O)Nc1cc(CN2CCN(C)CC2)c(O)c(N2CCN(C)CC2)c1` ?
15.8 µM

Next record, please: `CCOc1nc2ccccc2nc1C(=O)Nc1ccc(O)c(CN2CCCCC2)c1`
794 µM

Origin of values: ChEMBL document CHEMBL1147014
